I'd be grateful if you could share measured GI50 for these entries.
- Test system: ACHN
- Experiment notes: NCI tumour cell line growth inhibition, 48 h
Activity calls are given as the source filed them. Rule as the data show it: active = GI50 up to about 1.1 µM and inactive = higher.

CCCCC[C@@H]1CCCC2NC(CCCCCO[Si](c3ccccc3)(c3ccccc3)C(C)(C)C)CCC21 (stereo partly specified); 13.5 µM (inactive)
Cc1cc(C)nc(NS(=O)(=O)c2ccc(Nc3c4ccccc4nc4c(C(=O)Nc5ccc(S(=O)(=O)Nc6cc(C)on6)cc5)ccc(Cl)c34)cc2)n1; 36.2 µM (inactive)
NC(CCCNCc1ccccc1)C(=O)O (stereo unspecified); > 100 µM (inactive)
NC1c2ccccc2Nc2ccccc21; 4.9 µM (inactive)
O=C(Cn1nnc(-c2ccccc2)n1)N/N=C/c1cn(Cc2ccc(Cl)cc2Cl)c2ccccc12; > 100 µM (inactive)

Items follow; give GI50 for each.
1. COc1ccc2c(n1)Sc1nc3ccccc3nc1N2
2. CC(C)NC1CCCCC2c3ccccc3C12O (stereo unspecified)
3. Cc1nc2ccc(/N=N/N(C)C)cc2[nH]1
4. COc1ccc(C2SCC(=O)N2NC(=O)C(C)Oc2ccccc2C)cc1 (stereo unspecified)
5. O=C(O)C1C2C=CC(O2)C1C(=O)Nc1ncccn1 (stereo unspecified)
6. O=C(c1ccccc1)c1c(C(F)(F)F)[n+]([O-])c2ccccc2[n+]1[O-]
7. N#Cc1nc(-c2cccs2)oc1N
8. O=C1NC2=NN=C(c3ccc(Br)cc3)CN2NC12c1ccccc1-c1ccccc12

1. 23.2 µM (inactive)
2. > 100 µM (inactive)
3. > 100 µM (inactive)
4. 68.5 µM (inactive)
5. > 100 µM (inactive)
6. 1.36 µM (inactive)
7. > 100 µM (inactive)
8. > 100 µM (inactive)

Items follow; give GI50 for each.
1. CC(C)[Si]1(C(C)C)OCC2OC(n3ccc(=O)[nH]c3=O)C([Se]c3ccccc3)C2O[Si](C(C)C)(C(C)C)O1 (stereo unspecified)
2. CCOC(=O)CCCc1cc(O)c2c(C)c3[nH]c4ccc(Cl)cc4c3c(C)c2n1
3. Oc1ccccc1CNCc1ccccc1O
4. O=C(CCl)Nc1ccc(-c2nc3ccccc3s2)cc1
5. NCc1cc(O)c(O)c(O)c1

1: 2.61 µM (inactive); 2: 24.3 µM (inactive); 3: > 100 µM (inactive); 4: 5.28 µM (inactive); 5: > 100 µM (inactive)

Items follow; give GI50 for each.
1. CC(C)(C)[Si](C)(C)OCC1C=CC(n2cnc3c(N)ncnc32)O1 (stereo unspecified)
2. Cc1ccc(/C=N/Nc2cnccn2)s1
3. O=C(/C=C\c1cccc2ccccc12)c1cccc2ccccc12

["> 100 µM (inactive)", "> 100 µM (inactive)", "11.6 µM (inactive)"]

----------
- Test system: A498
- Experiment notes: NCI tumour cell line growth inhibition, 48 h
Activity calls are given as the source filed them. Rule as the data show it: active = GI50 up to about 1.1 µM and inactive = higher.
Observation type: GI50

CCCc1c(C(=O)OCC)[nH]c(-c2ccc(-c3[nH]c(C(=O)OCC)c(CCC)c3C(=O)OCC)s2)c1C(=O)OCC; 43.9 µM (inactive)
CCOC(=O)c1cc2c(OC)cc(OC)cc2oc1=O; > 100 µM (inactive)
O=C(NC1CCN(Cc2ccccc2)CC1)c1ccc(I)cc1; > 100 µM (inactive)
N#C/C(=C\c1cc(O)ccc1O)C(N)=O; 41 µM (inactive)

Then there is this molecule:
Return reported GI50; argument: CCOC(=O)C(Cc1ccccc1)NC(=O)c1nc[nH]c1/N=N/N(C)C (stereo not given)
> 100 µM (inactive)

----------
- Tested on: MCF7
- Experiment notes: NCI tumour cell line growth inhibition, 48 h
Calls of active or inactive are those of the source. No stated cut-off is given here; in the data, active = GI50 up to about 1.1 µM and inactive = higher.
API: response.call in active, inactive

Past entries and their recorded results:
Oc1ccccc1CNCc1ccccc1O; inactive
N#C[BH2-][n+]1cn(C2CC(O)C(COP(=O)(O)OC3CC(n4cnc5c(=O)[nH]c(N)nc54)OC3CO)O2)c2nc(N)[nH]c(=O)c21 (stereo unspecified); inactive
COc1cc2ccc1OCc1cccc(n1)COc1ccc(cc1OC)/C=N\CCNCCNCC/N=C\2; inactive
O=[N+]([O-])C(=C1NCCN1)/C(Cl)=C(/Cl)N1CCOCC1; inactive
CC(C)=CCC[C@@H](C)C1=C(O)C(=O)C(C)=C(Nc2ccccc2Br)C1=O; inactive
CN1CCN(C2=C(Cl)C(=O)c3c(O)ccc(O)c3C2=O)CC1; active

Returns: the outcome recorded for `CS(=O)(=O)Nc1ccc2c(c1)oc(=O)c1ccccc12` in this assay.
inactive

Returns: the outcome recorded for `CNc1ccc(C)cc1S(=O)(=O)c1ccccc1[N+](=O)[O-]` in this assay.
inactive

Returns: the outcome recorded for `Cc1sc(/N=C/c2c[nH]c3ccccc23)c(C#N)c1C` in this assay.
inactive

Returns: the outcome recorded for `O=C1N[C@@H]2O[C@H](CNC(=O)c3cc(Br)c[nH]3)C[C@]2(O)N1.O=C1N[C@H]2O[C@H](CNC(=O)c3cc(Br)c[nH]3)C[C@@]2(O)N1` in this assay.
inactive

Returns: the outcome recorded for `CCOC(=O)CCCc1cc(O)c2c(C)c3[nH]c4ccc(Cl)cc4c3c(C)c2n1` in this assay.
inactive

----------
I'd be grateful if you could share measured GI50 for these entries.
- System: OVCAR-3
- Experiment notes: NCI tumour cell line growth inhibition, 48 h
Active and inactive are the calls of the source. Cut-off read from the data, not from the text of the source: active = GI50 up to about 1.1 µM and inactive = higher.

Clc1ccc(C2SCc3nc4ccccc4n32)c(Cl)c1 (stereo not drawn); 14.1 µM (inactive)

Items follow; give GI50 for each.
1. CC(C)=CCC[C@@H](C)C1=C(O)C(=O)C(C)=C(Nc2ccccc2Br)C1=O
2. CN1C(=S)C(c2ccccc2)Sc2ccccc21 (stereo not drawn)
3. COc1ccc(O)c2c1C(=O)CCCC2=O
4. CCCc1c(C(=O)OCC)[nH]c(-c2ccc(-c3[nH]c(C(=O)OCC)c(CCC)c3C(=O)OCC)s2)c1C(=O)OCC
5. O=C1c2ccccc2C(=O)C1C(c1ccc(F)cc1)C1C(=O)c2ccccc2C1=O
6. CN1CCc2[nH]c3ccccc3c2C1
7. CCOC(=O)/C=C(\C(=O)OCC)n1cnc2c(N)ncnc21
8. CCOC(=O)C1=C(c2ccccc2)N(C(C)=O)Cc2ccccc21

4.13 µM (inactive)
48.2 µM (inactive)
> 100 µM (inactive)
31.6 µM (inactive)
> 100 µM (inactive)
> 100 µM (inactive)
8.41 µM (inactive)
18.6 µM (inactive)

Items follow; give GI50 for each.
1. CC[n+]1c(/C=C/c2ccc(N(CCCl)CCCl)cc2)ccc2cc(I)ccc21
2. Cc1sc(/N=C/c2c[nH]c3ccccc23)c(C#N)c1C
3. CCOc1ccccc1NC(=O)C1=C(C)NC(C)=C(C(=O)Nc2ccccc2OCC)C1c1ccc(NC(C)=O)cc1
4. CCCCc1c2c(nc3c1CCC/C3=C\c1ccccc1)C(=O)C(CN(C)C)CC2 (stereo not drawn)
5. COc1ccc(C(=O)C=C2NCCN2)cc1

1. 0.553 µM (active)
2. 11.2 µM (inactive)
3. 45.3 µM (inactive)
4. 19.5 µM (inactive)
5. > 100 µM (inactive)

Items follow; give GI50 for each.
1. C[C@]12C[C@H](c3ccccc3)Nc3ccccc3N1C(c1ccccc1)=NO2
2. C[C@]12CC[C@H](O)CC1=CC[C@@H]1C2CC[C@]2(C)Nc3c(cnn3-c3ccccc3)CC12 (stereo partly drawn)
3. c1ccc(COCC23CCN(Cc4ccccc4)C(CC(OCc4ccccc4)C2)S3)cc1 (stereo not drawn)
4. C[C@]12CC[C@H]3[C@@H](CCC4=CC(=O)C=C[C@@]43O)[C@@H]1CCC2=O

1. 28.5 µM (inactive)
2. 5.9 µM (inactive)
3. 97.5 µM (inactive)
4. > 100 µM (inactive)

----------
- Tested on: SNB-75
- Experiment notes: NCI tumour cell line growth inhibition, 48 h
Activity calls are given as the source filed them. Cut-off read from the data, not from the text of the source: active = GI50 up to about 1.1 µM and inactive = higher.
Observation type: GI50

Before answering, review these 2 worked examples.
O[C@]12c3ccccc3C1CCCCC2N1CCOCC1 (stereo partly drawn); > 100 µM (inactive)
c1ccc2cc(CNCCOCCOCCNCc3ccc4ccccc4c3)ccc2c1; 1.95 µM (inactive)

Then there is this compound:
Return reported GI50; argument: `O=C(O)CCNCCCCNCCC(=O)O`
> 100 µM (inactive)

----------
I'd be grateful if you could share measured GI50 for these entries.
- System: SN12C
- Experiment notes: NCI tumour cell line growth inhibition, 48 h
The source made the active and inactive calls. Cut-off read from the data, not from the text of the source: active = GI50 up to about 1.1 µM and inactive = higher.

Items follow; give GI50 for each.
1. C=C1C[C@@H](O)[C@@H](Br)C(C)(C)[C@]12CCC(C)(Br)C(Cl)C2 (stereo partly specified)
2. COc1ccc(C2SCC(=O)N2NC(=O)C(C)Oc2ccccc2C)cc1 (stereo unspecified)
3. O=C(O)CCSc1ncnc2[nH]cnc12
4. O=[N+]([O-])C(=C1NCCN1)/C(Cl)=C(/Cl)N1CCOCC1
5. C/C(=C\c1ccccc1)C(=O)CCN1CCOCC1
6. CCOc1ccnc2c(OC)c(C)c3nc4ccccc4nc3c12
7. COc1ccc(/C=N/c2ccc(-c3nc4ccccc4s3)cc2)cc1OC

1: > 50 µM (inactive); 2: 87.7 µM (inactive); 3: > 100 µM (inactive); 4: > 100 µM (inactive); 5: 18.2 µM (inactive); 6: > 100 µM (inactive); 7: 25.7 µM (inactive)

Items follow; give GI50 for each.
1. CC(O)C1OC(n2ccc(=O)[nH]c2=O)CC1n1cncn1 (stereo unspecified)
2. CCOC(=O)c1ccc(N2C(=S)N(C(=O)c3ccccc3)C(=N/c3ccccc3)/C2=N\c2ccccc2)cc1
3. CCSC1=C(C)N(/C=N/C(C)(C)C)CC1
4. COc1cc(C2S/C(=C/c3ccccc3)C(=O)N2c2ccccn2)cc(OC)c1OC (stereo unspecified)

1: > 100 µM (inactive); 2: > 100 µM (inactive); 3: > 100 µM (inactive); 4: 15.3 µM (inactive)
